Exercise: state measured drug sensitivity score for each of the molecules provided.
- Test system: CAL-85-1
- test.name: drug sensitivity score (DSS), CellTox Green (DSS (AUC-based score)); higher = stronger drug effect (viability inhibition or cytotoxicity); extreme values may be limits of the assay
- condition.description: incubation time: 72 h

# query: drug sensitivity score of entry COc1nc(N)nc2c1ncn2[C@@H]1O[C@H](CO)[C@@H](O)[C@@H]1O [Nelarabine] 0

Okay, and c1cc(CN2CCCNCCNCCCNCC2)ccc1CN1CCCNCCNCCCNCC1 [Plerixafor] ? 0

Okay, and CS(=O)(=O)N1CCN(Cc2cc3nc(-c4cccc5[nH]ncc45)nc(N4CCOCC4)c3s2)CC1 [Pictilisib] ? 3.76

Okay, and CCCCC/C=C/C=C1/C(=O)C=C[C@@H]1C/C=C\CCCC(=O)O [15D-PGJ2] ? 0

Okay, and CC(=O)OC[C@H]1O[C@@H]([S-])[C@H](OC(C)=O)[C@@H](OC(C)=O)[C@@H]1OC(C)=O.CCP(CC)CC.[Au+] [Auranofin] ? 4.88

====

- System: DU-4475
- test.name: normalised response (% of control), CellTox Green; higher = less cell death (100 = DMSO, 0 = benzethonium chloride kill control)
- condition.description: incubation time: 72 h
parameter.measured: normalised response (%)
Give just the number in %; leave the unit off.

# query: normalised response of entry Cc1nc(Nc2ncc(C(=O)Nc3c(C)cccc3Cl)s2)cc(N2CCN(CCO)CC2)n1 [Dasatinib] (100 nM) 102

Okay, and Cc1nc(Nc2ncc(C(=O)Nc3c(C)cccc3Cl)s2)cc(N2CCN(CCO)CC2)n1 [Dasatinib] (10 nM) ? 110

Okay, and CNC(=O)c1cc(Oc2ccc(NC(=O)Nc3ccc(Cl)c(C(F)(F)F)c3)cc2)ccn1 [Sorafenib] (1000 nM) ? 97.7

Okay, and CC(=O)OC[C@H]1O[C@@H]([S-])[C@H](OC(C)=O)[C@@H](OC(C)=O)[C@@H]1OC(C)=O.CCP(CC)CC.[Au+] [Auranofin] (250 nM) ? 110

Okay, and c1cc(CN2CCCNCCNCCCNCC2)ccc1CN1CCCNCCNCCCNCC1 [Plerixafor] (10000 nM) ? 92.3

Okay, and CCCCC/C=C/C=C1/C(=O)C=C[C@@H]1C/C=C\CCCC(=O)O [15D-PGJ2] (8 nM) ? 110

Okay, and CCC/C=C/C=C/C(=O)O[C@H]1/C(=C/C(=O)OC)C[C@H]2C[C@H]([C@@H](C)O)OC(=O)C[C@H](O)C[C@@H]3C[C@H](OC(C)=O)C(C)(C)[C@](O)(C[C@@H]4C/C(=C/C(=O)OC)C[C@H](/C=C/C(C)(C)[C@]1(O)O2)O4)O3 [Bryostatin 1] (100 nM) ? 112

Okay, and O=S(=O)(c1cccc2cnccc12)N1CCCNCC1 [Fasudil] (50000 nM) ? 95.4

Okay, and CO[C@@H](C(=O)N1Cc2[nH]nc(NC(=O)c3ccc(N4CCN(C)CC4)cc3)c2C1)c1ccccc1 [Danusertib] (1000 nM) ? 97.3

Okay, and O=S(=O)(c1cccc2cnccc12)N1CCCNCC1 [Fasudil] (5000 nM) ? 99

Okay, and Nc1cccc2c1CN(C1CCC(=O)NC1=O)C2=O (stereo not given) [Lenalidomide] (10000 nM) ? 100

Okay, and CCC/C=C/C=C/C(=O)O[C@H]1/C(=C/C(=O)OC)C[C@H]2C[C@H]([C@@H](C)O)OC(=O)C[C@H](O)C[C@@H]3C[C@H](OC(C)=O)C(C)(C)[C@](O)(C[C@@H]4C/C(=C/C(=O)OC)C[C@H](/C=C/C(C)(C)[C@]1(O)O2)O4)O3 [Bryostatin 1] (1 nM) ? 106

Okay, and COc1ccc(-c2cc3c(C)nc(N)nc3n([C@H]3CC[C@H](OCCO)CC3)c2=O)cn1 (10000 nM) ? 67.2

Okay, and COc1cc(CCc2cc(NC(=O)c3ccc(N4CC(C)NC(C)C4)cc3)n[nH]2)cc(OC)c1 (stereo not given) [AZD4547] (100 nM) ? 97.8

Okay, and COc1ccc(-c2cc3c(C)nc(N)nc3n([C@H]3CC[C@H](OCCO)CC3)c2=O)cn1 (1000 nM) ? 86.2

Okay, and CCCCC/C=C/C=C1/C(=O)C=C[C@@H]1C/C=C\CCCC(=O)O [15D-PGJ2] (80 nM) ? 110

Okay, and Cc1c(CN2CCN(C(=O)[C@H](C)O)CC2)sc2c(N3CCOCC3)nc(-c3cnc(N)nc3)nc12 [GDC-0980] (1000 nM) ? 98.7

Okay, and CC(C)N(CCCNC(=O)Nc1ccc(C(C)(C)C)cc1)C[C@H]1O[C@@H](n2cc(Br)c3c(N)ncnc32)[C@H](O)[C@@H]1O [SGC0946] (10000 nM) ? 98.7

Okay, and Cc1c(Cn2c(C)nc3c(C(=O)O)cc(N4CCOCC4)cc32)cccc1C(F)(F)F (1000 nM) ? 111

Okay, and CS(=O)(=O)N1CCN(Cc2cc3nc(-c4cccc5[nH]ncc45)nc(N4CCOCC4)c3s2)CC1 [Pictilisib] (1000 nM) ? 98.3

====

- Test system: BT-474
- test.name: normalised response (% of control), CellTox Green; higher = less cell death (100 = DMSO, 0 = benzethonium chloride kill control)
- condition.description: incubation time: 72 h
Exercise: state measured normalised response for each of the molecules provided.
Give just the number in %; leave the unit off.

# query: normalised response of entry COc1cc(CCc2cc(NC(=O)c3ccc(N4CC(C)NC(C)C4)cc3)n[nH]2)cc(OC)c1 (centres undefined) [AZD4547] (100 nM) 96.5

Okay, and O=C1c2c(O)ccc(O)c2C(=O)c2c(NCCNCCO)ccc(NCCNCCO)c21 [Mitoxantrone] (1000 nM) ? 95.7

Okay, and Nc1cccc2c1CN(C1CCC(=O)NC1=O)C2=O (centres undefined) [Lenalidomide] (100 nM) ? 101

Okay, and CO[C@@H](C(=O)N1Cc2[nH]nc(NC(=O)c3ccc(N4CCN(C)CC4)cc3)c2C1)c1ccccc1 [Danusertib] (1000 nM) ? 102

====

- Test system: HCC1143
- test.name: normalised response (% of control), CellTiter-Glo; higher = more viable cells (100 = DMSO, 0 = benzethonium chloride kill control)
- condition.description: incubation time: 72 h
Exercise: state measured normalised response for each of the molecules provided.
Give just the number in %; leave the unit off.

# query: normalised response of entry C[C@]12C=CC(=O)C=C1CC[C@@H]1[C@@H]2[C@@H](O)C[C@@]2(C)[C@H]1CC[C@]2(O)C(=O)CO [Prednisolone] (1 nM) 96.9

Okay, and CC(=O)OC[C@H]1O[C@@H]([S-])[C@H](OC(C)=O)[C@@H](OC(C)=O)[C@@H]1OC(C)=O.CCP(CC)CC.[Au+] [Auranofin] (250 nM) ? 91.8

Okay, and CNC(=O)c1cc(Oc2ccc(NC(=O)Nc3ccc(Cl)c(C(F)(F)F)c3)cc2)ccn1 [Sorafenib] (100 nM) ? 105

Okay, and Cc1cccc(-c2nn3c(c2-c2ccnc4ccc(C(N)=O)cc24)CCC3)n1 [Galunisertib] (100 nM) ? 109

Okay, and O=C(Nc1c[nH]nc1-c1nc2ccc(CN3CCOCC3)cc2[nH]1)NC1CC1 [AT9283] (1 nM) ? 102

Okay, and Cc1ccc(Nc2nccc(N(C)c3ccc4c(C)n(C)nc4c3)n2)cc1S(N)(=O)=O [Pazopanib] (1 nM) ? 97.4

Okay, and CC(=O)OC[C@H]1O[C@@H]([S-])[C@H](OC(C)=O)[C@@H](OC(C)=O)[C@@H]1OC(C)=O.CCP(CC)CC.[Au+] [Auranofin] (2.5 nM) ? 97.8

====

Exercise: state measured normalised viability for each of the molecules provided.
- Tested on: MDA-MB-436
- test.name: normalised viability (% of control), CellTiter-Blue; higher = more viable cells (about 100 = DMSO control)
- condition.description: 10000 nM; incubation time: 72 h
Give just the number in %; leave the unit off.

# query: normalised viability of entry `C[C@]12C=CC(=O)C=C1CC[C@@H]1[C@@H]2[C@@H](O)C[C@@]2(C)[C@H]1CC[C@]2(O)C(=O)CO` 108

Okay, and `CO[C@@H](C(=O)N1Cc2[nH]nc(NC(=O)c3ccc(N4CCN(C)CC4)cc3)c2C1)c1ccccc1` ? 60.9

Okay, and `O=S(=O)(c1cccc2cnccc12)N1CCCNCC1` ? 107

Okay, and `O=C(Nc1c[nH]nc1-c1nc2ccc(CN3CCOCC3)cc2[nH]1)NC1CC1` ? 29.6

====

- Tested on: CAL-120
- test.name: normalised response (% of control), CellTiter-Glo; higher = more viable cells (100 = DMSO, 0 = benzethonium chloride kill control)
- condition.description: incubation time: 72 h
parameter.measured: normalised response (%)
Give just the number in %; leave the unit off.

# query: normalised response of entry c1cc(CN2CCCNCCNCCCNCC2)ccc1CN1CCCNCCNCCCNCC1 [Plerixafor] (1 nM) 102

Okay, and C[C@]12O[C@H](C[C@]1(O)CO)n1c3ccccc3c3c4c(c5c6ccccc6n2c5c31)CNC4=O [Lestaurtinib] (0.1 nM) ? 103

Okay, and Cc1nc(Nc2ncc(C(=O)Nc3c(C)cccc3Cl)s2)cc(N2CCN(CCO)CC2)n1 [Dasatinib] (0.1 nM) ? 98.9

Okay, and CCCCC/C=C/C=C1/C(=O)C=C[C@@H]1C/C=C\CCCC(=O)O [15D-PGJ2] (0.08 nM) ? 102

Okay, and CO[C@@H](C(=O)N1Cc2[nH]nc(NC(=O)c3ccc(N4CCN(C)CC4)cc3)c2C1)c1ccccc1 [Danusertib] (10 nM) ? 93.4

Okay, and COc1ccc(-c2cc3c(C)nc(N)nc3n([C@H]3CC[C@H](OCCO)CC3)c2=O)cn1 (1 nM) ? 91.1

Okay, and O=S(=O)(c1cccc2cnccc12)N1CCCNCC1 [Fasudil] (5 nM) ? 95.5

Okay, and O=C(Nc1c[nH]nc1-c1nc2ccc(CN3CCOCC3)cc2[nH]1)NC1CC1 [AT9283] (0.1 nM) ? 45.5

Okay, and Cc1ccc(Nc2nccc(N(C)c3ccc4c(C)n(C)nc4c3)n2)cc1S(N)(=O)=O [Pazopanib] (1 nM) ? 95.4

Okay, and c1cc(CN2CCCNCCNCCCNCC2)ccc1CN1CCCNCCNCCCNCC1 [Plerixafor] (10 nM) ? 96.2

Okay, and Cc1c(CN2CCN(C(=O)[C@H](C)O)CC2)sc2c(N3CCOCC3)nc(-c3cnc(N)nc3)nc12 [GDC-0980] (1 nM) ? 104

Okay, and Nc1ccccc1NC(=O)c1ccc(CNc2nccc(-c3cccnc3)n2)cc1 [Mocetinostat] (1000 nM) ? 83.8

Okay, and Cc1ccc(Nc2nccc(N(C)c3ccc4c(C)n(C)nc4c3)n2)cc1S(N)(=O)=O [Pazopanib] (1000 nM) ? 87.3

Okay, and CO[C@@H](C(=O)N1Cc2[nH]nc(NC(=O)c3ccc(N4CCN(C)CC4)cc3)c2C1)c1ccccc1 [Danusertib] (1 nM) ? 99.1

Okay, and Nc1cccc2c1CN(C1CCC(=O)NC1=O)C2=O (stereo unspecified) [Lenalidomide] (10 nM) ? 92.6

Okay, and O=C(NC[C@H](O)CO)c1ccncc1Nc1ccc(I)cc1F [Pimasertib] (1 nM) ? 99.8
